Data provenance: ChEMBL document CHEMBL4002646

- Tested on: Plasmodium falciparum
- protocolDescription: Antimalarial activity against chloroquine-resistant Plasmodium falciparum Dd2 infected in human O+ erythrocytes after 72 hrs by SYBR green fluorescence-based method
- Format: functional, cell-based
Examples of compounds with documented IC50 follow.
Express it in nM; write the number only.

| compound | IC50, nM |
| --- | --- |
| CC(C)[C@H]1CC[C@](C)(C#N)[C@H]2CC[C@@](C)(C#N)[C@H](O)[C@H]12 (racemic) | 46 |

Query compound follows.
### Prompt # query: IC50 of entry "CC(C)[C@H]1CC[C@](C)(C#N)[C@H]2CC[C@@](C)(C#N)[C@H](O)[C@H]12"
### Response 17
